This collection of values is drawn from patent US20230373929A1.

Tested on: human lung cancer cells A549
Test: anti-proliferative activity against tumor cells, resazurin assay, A549
Type: cell-based
Details: Homo sapiens; A549, 96 hours culture, resazurin fluorescence 530/590 nm; read-out: IC50 Grades of Inhibitory Effects of Compounds on Tumor Cells, A549
measured-endpoint: IC50

{"molecule": "CCN(C)C(=O)NCCN(CCN1C(=O)c2cccc3c2c(cc2ccccc23)C1=O)OC", "tgt": "human lung cancer cells A549", "measured-endpoint": "IC50", "observed-result": "5 to 10 µM"}
{"molecule": "CN(C)CCN1C(=O)c2cccc3cc(N)cc(c23)C1=O [Amonafide, reference compound]", "tgt": "human lung cancer cells A549", "measured-endpoint": "IC50", "observed-result": "1 to 5 µM"}
{"molecule": "CCSC(=O)OCCCCOCN1C(=O)c2cccc3c(C)c4ccccc4c(c23)C1=O", "tgt": "human lung cancer cells A549", "measured-endpoint": "IC50", "observed-result": "5 to 10 µM"}
{"molecule": "CN(C)C(=O)NCCN(CCCN1C(=O)c2cccc3cc4ccccc4c(c23)C1=O)[N+](=O)[O-]", "tgt": "human lung cancer cells A549", "measured-endpoint": "IC50", "observed-result": "5 to 10 µM"}

----------
System: human leukemia cells HL-60
Experiment: anti-proliferative activity against tumor cells, resazurin assay, HL-60
Assay type: cell-based
Conditions: Homo sapiens; HL-60, 96 hours culture, resazurin fluorescence 530/590 nm; read-out: IC50 Grades of Inhibitory Effects of Compounds on Tumor Cells, HL-60
pIC50: −log10 of the molar value.

{"compound": "CCN(C)C(=O)NCCN(CCN1C(=O)c2cccc3c2c(cc2ccccc23)C1=O)OC", "pIC50": "5.00 to 5.30"}
{"compound": "CON(C)C(=O)N(C)CCCCNCCN1C(=O)c2cccc3c(N(C)C)ccc(c23)C1=O", "pIC50": "5.00 to 5.30"}
{"compound": "CONC(=O)NCCN(CCCCN1C(=O)c2cccc3c2c(cc2ccoc23)C1=O)OC", "pIC50": "5.00 to 5.30"}
{"compound": "COc1ccc2cc3c(cc2c1)C(=O)N(COCCN(OC)C(=O)N(C)C)C3=O", "pIC50": "5.00 to 5.30"}
{"compound": "CN(C)CCN1C(=O)c2cccc3cc(N)cc(c23)C1=O [Amonafide, reference compound]", "pIC50": "5.00 to 5.30"}
{"compound": "CCSC(=O)OCCCCOCN1C(=O)c2cccc3c(C)c4ccccc4c(c23)C1=O", "pIC50": "4.70 to 4.96"}
{"compound": "CN(N=O)C(=O)NCCCCCCNCN1C(=O)c2cccc3c2c(cc2ccc(C#N)cc23)C1=O", "pIC50": "5.00 to 5.30"}
{"compound": "CN(C)C(=O)NCCN(CCCN1C(=O)c2cccc3cc4ccccc4c(c23)C1=O)[N+](=O)[O-]", "pIC50": "5.30 to 6.00"}
{"compound": "CC(C)(C)OC(=O)N1CCN(CCCN2C(=O)c3ccc4c5cccc6c(Br)ccc(c7ccc(c3c47)C2=O)c65)CC1", "pIC50": "5.00 to 5.30"}

----------
Test system: human colon cancer cells COLO 205
Assay: anti-proliferative activity against tumor cells, resazurin assay, COLO 205
Assay type: cell-based
Conditions: COLO205, 96 hours culture, resazurin fluorescence 530/590 nm; read-out: IC50 Grades of Inhibitory Effects of Compounds on Tumor Cells, COLO205

{"structure": "O=C(OCCOCCCCN1C(=O)c2cccc3cccc(c23)C1=O)N(CCl)CCl", "IC50": "5 to 10 µM"}

----------
Test system: human leukemia cells U-937
Experiment: anti-proliferative activity against tumor cells, resazurin assay, U-937
Format: cell-based
Conditions: Homo sapiens; U-937, 96 hours culture, resazurin fluorescence 530/590 nm; read-out: IC50 Grades of Inhibitory Effects of Compounds on Tumor Cells, U-937
measured-endpoint: IC50

{"compound": "CN(C)CCN1C(=O)c2cccc3cc(N)cc(c23)C1=O [Amonafide, reference compound]", "measured-endpoint": "IC50", "observed-result": "11 to 20 µM"}
{"compound": "CC(C)(C)OC(=O)N1CCN(CCCN2C(=O)c3ccc4c5cccc6c(Br)ccc(c7ccc(c3c47)C2=O)c65)CC1", "measured-endpoint": "IC50", "observed-result": "11 to 20 µM"}
{"compound": "CN(C)C(=O)NCCN(CCCN1C(=O)c2cccc3cc4ccccc4c(c23)C1=O)[N+](=O)[O-]", "measured-endpoint": "IC50", "observed-result": "5 to 10 µM"}
{"compound": "CON(C)C(=O)N(C)CCCCNCCN1C(=O)c2cccc3c(N(C)C)ccc(c23)C1=O", "measured-endpoint": "IC50", "observed-result": "5 to 10 µM"}

----------
Tested on: human lung cancer cells A549
Assay: anti-proliferative activity against tumor cells, resazurin assay, A549
Format: cell-based
Conditions: Homo sapiens; A549, 96 hours culture, resazurin fluorescence 530/590 nm; read-out: IC50 Grades of Inhibitory Effects of Compounds on Tumor Cells, A549
Description: Objective: To test the anti-proliferative activity of the compound of the present disclosure against various tumor cells. […] After the addition of the drug to each well was completed, the plates were cultured in an incubator for 96 hours, 22 μL of resazurin sodium solution (Alarm blue, SIGMA R7017) was added to each well. […] The fluorescence value of each well were recorded at 530/590 nm. […] The IC50 value of each test compound was calculated by Prism7 software. […]
measured-endpoint: IC50

{"structure": "CON(C)C(=O)N(C)CCCCNCCN1C(=O)c2cccc3c(N(C)C)ccc(c23)C1=O", "measured-endpoint": "IC50", "observed-result": "5 to 10 µM"}
{"structure": "CONC(=O)NCCN(CCCCN1C(=O)c2cccc3c2c(cc2ccoc23)C1=O)OC", "measured-endpoint": "IC50", "observed-result": "1 to 5 µM"}
{"structure": "CC(C)(C)OC(=O)N1CCN(CCCN2C(=O)c3ccc4c5cccc6c(Br)ccc(c7ccc(c3c47)C2=O)c65)CC1", "measured-endpoint": "IC50", "observed-result": "5 to 10 µM"}
{"structure": "COc1ccc2cc3c(cc2c1)C(=O)N(COCCN(OC)C(=O)N(C)C)C3=O", "measured-endpoint": "IC50", "observed-result": "5 to 10 µM"}
{"structure": "CN(N=O)C(=O)NCCCCCCNCN1C(=O)c2cccc3c2c(cc2ccc(C#N)cc23)C1=O", "measured-endpoint": "IC50", "observed-result": "1 to 5 µM"}

----------
Test system: human leukemia cells U-937
Assay: anti-proliferative activity against tumor cells, resazurin assay, U-937
Assay type: cell-based
Conditions: Homo sapiens; U-937, 96 hours culture, resazurin fluorescence 530/590 nm; read-out: IC50 Grades of Inhibitory Effects of Compounds on Tumor Cells, U-937
pIC50: −log10 of the molar value.

{"molecule": "COc1ccc2cc3c(cc2c1)C(=O)N(COCCN(OC)C(=O)N(C)C)C3=O [Compound I-08]", "pIC50": "5.00 to 5.30"}
{"molecule": "CCSC(=O)OCCCCOCN1C(=O)c2cccc3c(C)c4ccccc4c(c23)C1=O [Compound I-12]", "pIC50": "4.70 to 4.96"}
{"molecule": "CCN(C)C(=O)NCCN(CCN1C(=O)c2cccc3c2c(cc2ccccc23)C1=O)OC [Compound I-15]", "pIC50": "5.30 to 6.00"}
{"molecule": "CONC(=O)NCCN(CCCCN1C(=O)c2cccc3c2c(cc2ccoc23)C1=O)OC [Compound I-20]", "pIC50": "5.00 to 5.30"}
{"molecule": "CN(N=O)C(=O)NCCCCCCNCN1C(=O)c2cccc3c2c(cc2ccc(C#N)cc23)C1=O [Compound I-17]", "pIC50": "5.30 to 6.00"}

----------
System: human colon cancer cells HT-29
Test: anti-proliferative activity against tumor cells, resazurin (Alamar blue) assay, HT-29
Format: cell-based
Conditions: Homo sapiens, HT-29, 96 h, read-out: IC50 Grades of Inhibitory Effects of Compounds on Tumor Cells, HT-29
Reported IC50 is given for each of the following compounds.

{"compound": "O=NN(CCCl)C(=O)NCCNCCCCN1C(=O)c2cccc3cccc(c23)C1=O [Compound I-04]", "IC50": "< 1 µM"}
{"compound": "O=NN(CCCl)C(=O)NCCCCN1C(=O)c2cccc3cccc(c23)C1=O [Compound 1d, reference compound]", "IC50": "21 to 50 µM"}
{"compound": "O=NN(CCCl)C(=O)NCCN1C(=O)c2cccc3cc([N+](=O)[O-])cc(c23)C1=O [Compound 1, reference compound]", "IC50": "21 to 50 µM"}
{"compound": "O=NN(CCCl)C(=O)NCNCCN1C(=O)c2cccc3cc([N+](=O)[O-])cc(c23)C1=O [Compound I-03]", "IC50": "1 to 5 µM"}
{"compound": "O=C(NCCNCCCCN1C(=O)c2cccc3cccc(c23)C1=O)N(CCl)CCl [Compound I-01]", "IC50": "1 to 5 µM"}
